tested on: CAMK4; conditions: concentration: 1 μM, replicates: in singlicate; n = 1;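 note: KINOMEscan kinase panel screen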
Quick reference for %Inh among some molecules

STRUCTURE_AS_SMILES | STUDY_SYSTEM | UNIT_OF_MEASURE | %Inh
Cl.O=C(Nc1ccc(Oc2ccc3[nH]c(NC(=O)c4ccco4)nc3c2)cc1)Nc1cc(C(F)(F)F)ccc1F | CAMK4 | % | 0
CCNc1nccc(-c2c(-c3ccc(F)cc3)ncn2C2CCN(C)CC2)n1 | CAMK4 | % | 0
COc1ccc(C2=C(Nc3cccc(O)c3)C(=O)NC2=O)cc1 | CAMK4 | % | 0
Cn1cc(-c2ccc3c(c2)CCN3C(=O)Cc2cc(F)cc(C(F)(F)F)c2)c2c(N)ncnc21 | CAMK4 | % | 0
O=C(O)C(F)(F)F.O=c1[nH]ccc2nc(N[C@@H]3CCNC3)nc(Nc3cc(Cl)cc(Cl)c3)c12 | CAMK4 | % | 95.9
COc1cc(Nc2nccc(N3CCC(NS(=O)(=O)c4ccc(NC(C)=O)cc4)CC3)n2)cc(OC)c1OC | CAMK4 | % | 0
CNc1nccc(-c2ccc3c(N)n[nH]c3c2)n1 | CAMK4 | % | 0
Nc1ncnc2scc(-c3ccc(NC(=O)Cc4cc(F)ccc4F)cc3)c12.O=C(O)C(F)(F)F | CAMK4 | % | 0
